Overview of reported growth inhibition across a group of compounds:
- experiment: NCI Yeast Anticancer Drug Screen. Data for the cln2 rad14 strain (AID 165);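 further: 0% = growth equal to vehicle treated cultures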
- settings: S. cerevisiae cln2 rad14 strain, at 50.0 µM, hits give high values
This is part of a sample that, as a whole, favours compounds with a hit. Of some 79,000 tested, about 15% had one in any assay.
The answer is to be given in %; state only the numeric part.

I'd like to know its growth inhibition. The compound in question is O=C1O[C@@H]2C3COC(O)[C@](O)(O3)[C@@H]2/C1=C\c1ccc(O)cc1 (stereo partly drawn) 5.25

Queued: CCO/C=C1/N=C(c2cc([N+](=O)[O-])cc([N+](=O)[O-])c2C)OC1=O -58.2

Also need O=C(OCC1C2CCC(C2)C1c1ccccc1)c1ccc([N+](=O)[O-])cc1 (stereo not drawn) , thanks. -22.7
